Cited source: patent US20100286038A1

# PROTOCOL DETAILS: in vivo
# MEASUREMENT SETUP: nude, mouse, ip
METRIC: MTD at 7 days

Query: Which MTD at 7 days reading was recorded for the compound CN1CC[C@H](c2c(O)cc(O)c3c(=O)cc(-c4ccccc4Cl)oc23)[C@H](O)C1 [Formula III, Flavopiridol, reference compound] ?
Response: < 10 mg/kg
